Measurement Name: melting point

In [3]: df
Out[3]:
                                   compound  measurement_name      obs_value
0  CS(=O)(=O)Nc1cc([N+](=O)[O-])ccc1OC1CCCCC1     melting point  105 to 106 °C
1  O=C(O)C(CC1CCCCC1)NC(=O)C(CS)C(F)(F)F (stereo unspecified)     melting point  116 to 118 °C
2  COc1ccc(S(=O)(=O)N2C(=O)C(N)(c3ccccc3Cl)c3cc(Cl)ccc32)c([N+](=O)[O-])c1 (stereo unspecified)     melting point  192 to 195 °C
3  Cc1cc(-c2cccc(-c3ccc(CCCNC4CCc5ccccc5C4)cc3)n2)c(C)[nH]1 (stereo unspecified)     melting point  120 to 130 °C
4    Cc1cc2nccn2nc1OCCCS(=O)(=O)N1CCN(C)CC1     melting point  118 to 120 °C
5  O=C(O)C(Cc1ccccc1)CS(=O)C1CCCCC1 (stereo unspecified)     melting point  153 to 154 °C

----------
Measurement Name: melting point

In [3]: df
Out[3]:
                                    compound      obs_value
 0              CCOC(=O)c1ccc(C(F)(F)F)cc1SC    44 to 45 °C
 1  CCCCc1oc2ccccc2c1C(=O)c1cc(Br)c(OCC(=O)O)c(Br)c1    92 to 94 °C
 2  FC(F)(F)CSc1nc(-c2ccccc2)c(-c2ccccc2)[nH]1  186 to 187 °C
 3        O=C(Cl)c1c(Cl)c(Cl)c(Cl)c(Cl)c1CCl    77 to 78 °C
 4         O=C(NCCCS(=O)(=O)c1ccncc1)c1cccs1  124 to 125 °C
 5  COc1ccc(C(=O)NC(=O)Nc2cc3c(cc2F)/C(=C/c2[nH]c(C)c(CCC(=O)O)c2C)C(=O)N3)c(F)c1       > 300 °C
 6     CC(C)(O)C1CCN(c2ccc(C#N)c3ccccc23)CC1  133 to 134 °C
 7            CC(C)(CO)CCCCC(O)CCCCC(C)(C)CO    72 to 74 °C
 8                   N#Cc1cc2cc(Br)ccc2nc1Cl  228 to 230 °C
 9                  FC(F)Sc1ccc(-n2cnnn2)cc1    94 to 97 °C
10  CC(C#N)c1cc([N+](=O)[O-])ccc1F (stereo unspecified)    55 to 56 °C

----------
Measurement Name: melting point

In [3]: df
Out[3]:
                                   molecule      obs_value
0  CC(Br)C(=O)c1ccc2c(c1)C(C)NC(=O)N2 (stereo not drawn)  153 to 156 °C
1     CS(=O)(=O)CCOCCn1cnc2c(N)nc3ccccc3c21  145 to 148 °C
2        O=C(O)c1nc(C2CC2)nc(NCc2ccco2)c1Cl  150 to 152 °C

----------
# melting point values compiled below
Measurement Name: melting point

                                    molecule  measurement_name      obs_value
 0  COC(=O)c1cccc(OC2CCOc3ccc(OCc4ccccc4)cc3C2=O)c1 (stereo not drawn)     melting point  134 to 136 °C
 1  COc1cc(N)ccc1C(O)c1cc(C)ccn1 (stereo not drawn)     melting point  114 to 117 °C
 2  O=C(O)C1=Cc2cc(S(=O)(=O)Cl)ccc2OC1C(F)(F)F (stereo not drawn)     melting point  208 to 212 °C
 3                      CCON=Cc1cnnc2ccccc12     melting point    78 to 81 °C
 4  Cc1cccc2c(Nc3ccc(OCCCCN(CCCl)CCCl)cc3)c3cccc(C(=O)NCCN(C)C)c3nc12     melting point  166 to 167 °C
 5                COc1ccc(C=CS(=O)(=O)Cl)cc1     melting point    65 to 67 °C
 6  CC(=O)Nc1ccc(Nc2c([N+](=O)[O-])cc(C(=O)O)cc2S(=O)(=O)Nc2ccccc2NC(C)=O)cc1     melting point  252 to 253 °C
 7  Cc1cccc(-c2nc3ccc(Cl)nn3c2-c2ccnc(Nc3ccccc3C)c2)c1     melting point  191 to 192 °C
 8  CCCCC[C@@H](CNC(=O)Nc1c(OCC)ccc2c1CCC2)c1cccc2c1OCO2     melting point  108 to 109 °C
 9  NC(Cc1cccc(O)c1)c1ccccc1 (stereo not drawn)     melting point  179 to 181 °C
10  CCCOc1cc2c(cc1/C=C/c1ccc(C(=O)OCC)cc1)C(C)(C)CCC2(C)C     melting point   97 to 100 °C
11  COc1ccc2[nH]c3c(c2c1)C(C(=O)OCc1ccccc1)CCC3 (stereo not drawn)     melting point    81 to 83 °C
12  CC1=C(C(=O)c2ccc(C#N)cc2)C(=O)C2C=CC=CC2C1=O (stereo not drawn)     melting point  185 to 186 °C
13  COCCON=C(C1=C(O)C(=O)N(c2ccc(C)nn2)C1c1ccc(OC(F)(F)F)cc1)c1ccc(C(C)C)cc1 (stereo not drawn)     melting point  115 to 118 °C
14  COc1ccc(C(=O)NC(=O)Nc2ccc3c(c2)/C(=C/c2ccc[nH]2)C(=O)N3)cc1     melting point  278 to 283 °C
15  CC1(C)C(C=C2CCSC2=O)C1C(=O)OC(C#N)c1ccc(F)c(Oc2ccccc2)c1 (stereo not drawn)     melting point         131 °C
16          CCCCCCCOc1ccc(-c2ncc(C#N)cn2)cc1     melting point         102 °C
17  CC(C)(C)c1nc(-c2nn(-c3ccc(F)cc3F)c3c2C2CCC3C2)n[nH]1 (stereo not drawn)     melting point  268 to 269 °C
